// reported IC50 for each item listed
target: Electric eel acetyl-cholinesterase enzyme (AchE, Type-VI-S; EC 3.1.1.7) (Electrophorus electricus); assay: biochemical; settings: mean ± S.D. of three independent experiments; Tris-HCl pH 8.00, 412 nm
Reply numerically in µM, unit not repeated.

COc1cc(C(C)=O)ccc1OCc1cn(CCCCCCn2cc(COc3ccc(C(C)=O)cc3OC)nn2)nn1 :: 75.7
O=Cc1ccc(OCc2cn(CCCCn3cc(COc4ccc(C=O)cc4)nn3)nn2)cc1 :: 74.1
CC(=O)c1ccc(OCc2cn(CCCCCCn3cc(COc4ccc(C(C)=O)cc4)nn3)nn2)cc1 :: 62.4
O=Cc1ccc(OCc2cn(CCCCCn3cc(COc4ccc(C=O)cc4)nn3)nn2)cc1 :: 83.4
O=Cc1ccc(OCc2cn(CCCCCCCCCCn3cc(COc4ccc(C=O)cc4)nn3)nn2)cc1 :: 62.5

We next turn to a different compound, shown below.
May I ask what IC50 has been recorded for COc1cc(C=O)ccc1OCc1cn(CCCCCn2cc(COc3ccc(C=O)cc3OC)nn2)nn1 ?
69.4

###

// reported pIC50 for each item listed
biological target: Electric eel acetyl-cholinesterase enzyme (AchE, Type-VI-S; EC 3.1.1.7) (Electrophorus electricus, UniProt O42275); assay: biochemical; settings: mean ± S.D. of three independent experiments; Tris-HCl pH 8.00, 412 nm
Sequence (O42275 24-633): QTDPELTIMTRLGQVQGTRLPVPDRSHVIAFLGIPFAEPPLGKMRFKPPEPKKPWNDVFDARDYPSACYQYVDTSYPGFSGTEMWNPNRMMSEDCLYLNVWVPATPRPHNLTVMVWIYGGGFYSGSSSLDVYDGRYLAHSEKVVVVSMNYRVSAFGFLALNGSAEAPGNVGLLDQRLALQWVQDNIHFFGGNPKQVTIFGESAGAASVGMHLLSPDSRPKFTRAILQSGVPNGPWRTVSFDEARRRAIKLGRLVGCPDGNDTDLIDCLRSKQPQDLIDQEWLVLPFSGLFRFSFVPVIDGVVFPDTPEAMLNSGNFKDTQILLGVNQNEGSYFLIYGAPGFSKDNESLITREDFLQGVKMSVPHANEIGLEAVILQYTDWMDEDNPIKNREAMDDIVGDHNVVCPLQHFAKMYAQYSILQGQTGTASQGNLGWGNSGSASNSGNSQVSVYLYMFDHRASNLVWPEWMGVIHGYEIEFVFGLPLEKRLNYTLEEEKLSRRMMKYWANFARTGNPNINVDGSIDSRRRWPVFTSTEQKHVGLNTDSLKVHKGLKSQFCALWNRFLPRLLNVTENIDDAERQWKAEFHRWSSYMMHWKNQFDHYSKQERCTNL
By convention, pIC50 is the negative base-10 log of a molar concentration.

Solved entries (count: 4):
O=Cc1ccc(OCc2cn(CCCn3cc(COc4ccc(C=O)cc4)nn3)nn2)cc1 :: 4.20
CC(=O)c1ccc(OCc2cn(CCCCCn3cc(COc4ccc(C(C)=O)cc4)nn3)nn2)cc1 :: 4.17
CC(=O)c1ccc(OCc2cn(CCCCCCCCn3cc(COc4ccc(C(C)=O)cc4)nn3)nn2)cc1 :: 4.18
COc1cc(C=O)ccc1OCc1cn(CCCCCCn2cc(COc3ccc(C=O)cc3OC)nn2)nn1 :: 4.15

May I ask what pIC50 has been recorded for O=Cc1ccc(OCc2cn(CCCCCCn3cc(COc4ccc(C=O)cc4)nn3)nn2)cc1 ?
4.23

May I ask what pIC50 has been recorded for COc1cc(C(C)=O)ccc1OCc1cn(CCCCCCCCCCn2cc(COc3ccc(C(C)=O)cc3OC)nn2)nn1 ?
4.10

May I ask what pIC50 has been recorded for COc1cc(C(C)=O)ccc1OCc1cn(CCCn2cc(COc3ccc(C(C)=O)cc3OC)nn2)nn1 ?
4.20

May I ask what pIC50 has been recorded for COc1cc(C=O)ccc1OCc1cn(CCCCCCCCn2cc(COc3ccc(C=O)cc3OC)nn2)nn1 ?
4.21

May I ask what pIC50 has been recorded for CC(=O)c1ccc(OCc2cn(CCCCCCCCCCn3cc(COc4ccc(C(C)=O)cc4)nn3)nn2)cc1 ?
4.29

May I ask what pIC50 has been recorded for CC(=O)c1ccc(OCc2cn(CCCn3cc(COc4ccc(C(C)=O)cc4)nn3)nn2)cc1 ?
4.19

May I ask what pIC50 has been recorded for COc1cc(C=O)ccc1OCc1cn(CCCCn2cc(COc3ccc(C=O)cc3OC)nn2)nn1 ?
4.21

May I ask what pIC50 has been recorded for COc1cc(C(C)=O)ccc1OCc1cn(CCCCCn2cc(COc3ccc(C(C)=O)cc3OC)nn2)nn1 ?
4.12

Cited source: paper PMC6274262
